Form field: logP (one value per entry).
measured.quantity: logP

> print(dat)
                    item.smiles  test.result
 1           NCc1ccc(C(=O)O)cc1         1.03
 2           CCc1ccc(C(=O)O)cc1         2.89
 3          CCCc1ccc(C(=O)O)cc1         3.42
 4  [N-]=[N+]=Nc1ccc(C(=O)O)cc1         2.54
 5      CC(=O)Nc1cccc(C(=O)O)c1         1.32
 6         O=C(O)c1cc(Cl)ccc1Cl         2.82
 7       O=C(O)c1ccc(Cl)c(Cl)c1         3.25
 8          O=Cc1ccc(C(=O)O)cc1         1.76
 9         CCCOc1ccc(C(=O)O)cc1         3.09
10        CN(C)c1ccc(C(=O)O)cc1         1.28

Where do these numbers come from? They come from the OPERA property sets (Mansouri et al. 2018).
